# System: A498 (Kidney Carcinoma)
# Assay method text: Bliss excess, mean over the matrix (fraction); higher = more synergy
Cut-off -0.02 on Bliss excess, inclusive. At or above means true; below means false.

[[record]]
molecule = "NC1(C(=O)N[C@@H](CCO)c2ccc(Cl)cc2)CCN(c2ncnc3[nH]ccc23)CC1 [Capivasertib] + CCN(CCO)CCCOc1ccc2c(Nc3cc(CC(=O)Nc4cccc(F)c4)[nH]n3)ncnc2c1 [AZD2811] (first compound max 10 µM, 7x7, partner max 1 µM)"
answer_label = "false"

[[record]]
molecule = "CN(CCO)CC[C@H](CSc1ccccc1)Nc1ccc(S(=O)(=O)NC(=O)c2ccc(N3CCC([C@@H](O)c4ccccc4-c4ccc(Cl)cc4)CC3)cc2)cc1S(=O)(=O)C(F)(F)F [AZD4320] + C1CN(CCC1(C(=O)N[C@@H](CCO)C2=CC=C(C=C2)Cl)N)C3=NC=NC4=C3C=CN4 [Capivasertib] (first compound max 1 µM, 7x7, partner max 3 µM)"
answer_label = "true"

[[record]]
molecule = "Cc1c2c(nn1C)CSCc1cc(n(C)n1)CSc1cc(c3ccccc3c1)OCCCc1c(C(=O)O)n(C)c3c-2c(Cl)ccc13 [AZD5991] + Cc1cc2ncnn2cc1Nc1ncc2c(n1)n(C1CCOCC1)c(=O)n2C [AZD7648] (first compound max 1 µM, 7x7, partner max 10 µM)"
answer_label = "false"

[[record]]
molecule = "C=CCn1c(=O)c2cnc(Nc3ccc(N4CCN(C)CC4)cc3)nc2n1-c1cccc(C(C)(C)O)n1 [AZD1775] + C1CN(CCC1(C(=O)N[C@@H](CCO)C2=CC=C(C=C2)Cl)N)C3=NC=NC4=C3C=CN4 [Capivasertib] (first compound max 3 µM, partner max 3 µM)"
answer_label = "false"


Consider the additional molecule presented here.
Input: For this molecule, is measured Bliss excess -0.02 or higher? CC1(C)CCC(CN2CCN(c3ccc(C(=O)NS(=O)(=O)c4ccc(NCC5CCOCC5)c([N+](=O)[O-])c4)c(Oc4cnc5[nH]ccc5c4)c3)CC2)=C(c2ccc(Cl)cc2)C1 [Venetoclax] + Cc1cc2ncnn2cc1Nc1ncc2c(n1)n(C1CCOCC1)c(=O)n2C [AZD7648] (first compound max 1 µM, 7x7, partner max 10 µM)
Output: false

---

# Tested on: NCI-H2141 (Small Cell Lung Carcinoma)
# Assay method text: combination Emax (second highest fraction inhibited in the dose matrix, 72 h); higher = more inhibition; extreme values may be limits of the assay
Assay readout: combination Emax
Output: the number by itself.

[[record]]
compound = "CN(CCO)CC[C@H](CSc1ccccc1)Nc1ccc(S(=O)(=O)NC(=O)c2ccc(N3CCC([C@@H](O)c4ccccc4-c4ccc(Cl)cc4)CC3)cc2)cc1S(=O)(=O)C(F)(F)F [AZD4320] + C=CCn1c(=O)c2cnc(Nc3ccc(N4CCN(C)CC4)cc3)nc2n1-c1cccc(C(C)(C)O)n1 [AZD1775] (first compound max 1 µM, partner max 1 µM)"
experimental_target = "NCI-H2141 (Small Cell Lung Carcinoma)"
reported_result = 1


Turning now to a further record.
Input: Hi! What's the reported combination Emax for CCc1c2c(nc3ccc(O)cc13)-c1cc3c(c(=O)n1C2)COC(=O)[C@]3(O)CC [SN-38] + O=C(c1cc(Cc2n[nH]c(=O)c3ccccc23)ccc1F)N1CCN(C(=O)C2CC2)CC1 [Olaparib] (first compound max 0.3 µM, 7x7, partner max 10 µM) on NCI-H2141 (Small Cell Lung Carcinoma)?
Output: 0.423

---

Bliss excess by entry:
# System: NCI-H1581 (Non-Small Cell Lung Carcinoma)
# Assay method text: Bliss excess, mean over the matrix (fraction); higher = more synergy
Just the number, please.

[[record]]
compound = "CC1(C)CCC(CN2CCN(c3ccc(C(=O)NS(=O)(=O)c4ccc(NCC5CCOCC5)c([N+](=O)[O-])c4)c(Oc4cnc5[nH]ccc5c4)c3)CC2)=C(c2ccc(Cl)cc2)C1 [Venetoclax] + C[C@@H](Nc1cc(F)cc(F)c1)c1cc(C(=O)N(C)C)cc2c(=O)cc(N3CCOCC3)oc12 [AZD8186] (first compound max 1 µM, 7x7, partner max 3 µM)"
assay_readout = "Bliss excess"
reported_result = 0.0121

[[record]]
compound = "NC1(C(=O)N[C@@H](CCO)c2ccc(Cl)cc2)CCN(c2ncnc3[nH]ccc23)CC1 [Capivasertib] + CC(=O)c1c(C)c2cnc(Nc3ccc(N4CCNCC4)cn3)nc2n(C2CCCC2)c1=O [Palbociclib] (first compound max 10 µM, 7x7, partner max 10 µM)"
assay_readout = "Bliss excess"
reported_result = 0.0213


With those in mind, consider the next compound.
Input: # returns recorded Bliss excess (system: NCI-H1581 (Non-Small Cell Lung Carcinoma)) for C=CCn1c(=O)c2cnc(Nc3ccc(N4CCN(C)CC4)cc3)nc2n1-c1cccc(C(C)(C)O)n1 [AZD1775] + C1CN(CCC1(C(=O)N[C@@H](CCO)C2=CC=C(C=C2)Cl)N)C3=NC=NC4=C3C=CN4 [Capivasertib] (first compound max 3 µM, partner max 3 µM)
Output: 0.0271

---

# Tested on: TT2609-C02 (Thyroid Gland Carcinoma)
# Assay method text: Bliss excess, mean over the matrix (fraction); higher = more synergy
Assay readout: Bliss excess
Output: the number by itself.

[[record]]
molecule = "Cc1c2c(nn1C)CSCc1cc(n(C)n1)CSc1cc(c3ccccc3c1)OCCCc1c(C(=O)O)n(C)c3c-2c(Cl)ccc13 [AZD5991] + Cc1cc2ncnn2cc1Nc1ncc2c(n1)n(C1CCOCC1)c(=O)n2C [AZD7648] (first compound max 1 µM, 7x7, partner max 10 µM)"
assay_readout = "Bliss excess"
reported_result = -0.038


# context switch: different molecule, same Bliss excess
Input: Entry Cc1cc2ncnn2cc1Nc1ncc2c(n1)n(C1CCOCC1)c(=O)n2C [AZD7648] + O=C(c1cc(Cc2n[nH]c(=O)c3ccccc23)ccc1F)N1CCN(C(=O)C2CC2)CC1 [Olaparib] (first compound max 10 µM, 7x7, partner max 10 µM) has what Bliss excess?
Output: -0.0276

---

# Tested on: A3-KAW (B-Cell Non-Hodgkin's Lymphoma)
# Assay method text: Bliss excess, mean over the matrix (fraction); higher = more synergy
The compounds listed here are annotated with their Bliss excess.
Keep the answer to the number alone.

Some compounds with known Bliss excess results, for comparison:
[[record]]
compound = "COc1nnc2ccc(N3CCC(c4ccc(OCCN5CCN(C)C(=O)[C@H]5C)cc4)CC3)nn12 [AZD5153] + Cn1cnc2c(F)c(Nc3ccc(Br)cc3Cl)c(C(=O)NOCCO)cc21 [Selumetinib] (first compound max 1 µM, 7x7, partner max 10 µM)"
assay_readout = "Bliss excess"
reported_result = 0.0182

[[record]]
compound = "C[C@@H](c1ccc2nccn2c1)n1nnc2ncc(-c3cnn(C)c3)nc21 [Savolitinib] + CC1(C)CCC(CN2CCN(c3ccc(C(=O)NS(=O)(=O)c4ccc(NCC5CCOCC5)c([N+](=O)[O-])c4)c(Oc4cnc5[nH]ccc5c4)c3)CC2)=C(c2ccc(Cl)cc2)C1 [Venetoclax] (first compound max 1 µM, 7x7, partner max 1 µM)"
assay_readout = "Bliss excess"
reported_result = -0.023


In the following, a different compound is considered.
Input: Consider the compound shown here: CC1(C)CCC(CN2CCN(c3ccc(C(=O)NS(=O)(=O)c4ccc(NCC5CCOCC5)c([N+](=O)[O-])c4)c(Oc4cnc5[nH]ccc5c4)c3)CC2)=C(c2ccc(Cl)cc2)C1 [Venetoclax] + COc1cc(Nc2ncc3c(n2)-c2ccc(Cl)cc2C(c2c(F)cccc2OC)=NC3)ccc1C(=O)O [Alisertib] (first compound max 1 µM, 7x7, partner max 10 µM) What is its recorded Bliss excess?
Output: -0.156

---

# Tested on: GI-ME-N (Neuroblastoma)
# Assay method text: Bliss excess, mean over the matrix (fraction); higher = more synergy
Assay readout: Bliss excess
Kindly provide the number alone.

[[record]]
compound = "CC(=O)c1c(C)c2cnc(Nc3ccc(N4CCNCC4)cn3)nc2n(C2CCCC2)c1=O [Palbociclib] + Cc1c2c(nn1C)CSCc1cc(n(C)n1)CSc1cc(c3ccccc3c1)OCCCc1c(C(=O)O)n(C)c3c-2c(Cl)ccc13 [AZD5991] (first compound max 10 µM, 7x7, partner max 1 µM)"
assay_readout = "Bliss excess"
reported_result = -0.0873


Then there is this compound:
Input: Query: Bliss excess; subject: Cc1c2c(nn1C)CSCc1cc(n(C)n1)CSc1cc(c3ccccc3c1)OCCCc1c(C(=O)O)n(C)c3c-2c(Cl)ccc13 [AZD5991] + C[C@@H]1COCCN1C2=NC(=NC(=C2)C3(CC3)[S@](=N)(=O)C)C4=C5C=CNC5=NC=C4 [AZD6738] (first compound max 1 µM, 7x7, partner max 10 µM)
Output: 0.0481

---

# System: NCI-H1581 (Non-Small Cell Lung Carcinoma)
# Assay method text: combination Emax (second highest fraction inhibited in the dose matrix, 72 h); higher = more inhibition; extreme values may be limits of the assay
Below is a list of entries, each paired with its recorded combination Emax value.

[[record]]
compound = "Cc1cc2ncnn2cc1Nc1ncc2c(n1)n(C1CCOCC1)c(=O)n2C [AZD7648] + CCN(CCO)CCCOc1ccc2c(Nc3cc(CC(=O)Nc4cccc(F)c4)[nH]n3)ncnc2c1 [AZD2811] (first compound max 10 µM, 7x7, partner max 1 µM)"
reported_result = 0.499


Proceed to the following item.
Input: Look up combination Emax with NCI-H1581 (Non-Small Cell Lung Carcinoma) for this compound: C=CCn1c(=O)c2cnc(Nc3ccc(N4CCN(C)CC4)cc3)nc2n1-c1cccc(C(C)(C)O)n1 [AZD1775] + Nc1ccn([C@@H]2O[C@H](CO)[C@@H](O)C2(F)F)c(=O)n1 [Gemcitabine] (first compound max 1 µM, partner max 0.3 µM)
Output: 0.948
